- Test system: Freund's complete adjuvant-induced hind paw edema in rats
- PROTOCOL: Preventative Adjuvant Edema (Freund's complete adjuvant hind paw edema, acute anti-inflammatory effect)
- Assay type: in vivo, Male Sprague Dawley rats
- PARTICULARS: 25 mg/kg, p.o.; rat; edema volume day 0 to day 3
Listing: % Inhibition of selected molecules
PROPERTY LABEL: % Inhibition (%)

INSERT INTO measurements (molecule, assayed_system, property_label, meas_value) VALUES
  ('C=CCCCCC1CCC(CC)(CC(=O)O)c2[nH]c3c(C)cccc3c21 (single isomer, unassigned; isomer b) [Example 2]', 'Freund''s complete adjuvant-induced hind paw edema in rats', '% Inhibition', 28),
  ('C=CC/C=C\C[C@H]1CC[C@@](CC)(CC(=O)O)c2[nH]c3c(C)cccc3c21 (relative stereo)', 'Freund''s complete adjuvant-induced hind paw edema in rats', '% Inhibition', 43),
  ('C=CCCCCC1CCC(CC)(CC(=O)O)c2[nH]c3c(C)cccc3c21 (single isomer, unassigned; isomer a) [Example 3]', 'Freund''s complete adjuvant-induced hind paw edema in rats', '% Inhibition', 19),
  ('C=CCCCCC1CCC(CC)(CC(=O)O)c2[nH]c3c(CC)cccc3c21 (single isomer, unassigned)', 'Freund''s complete adjuvant-induced hind paw edema in rats', '% Inhibition', 0);

Taken from patent US4886826A.
